Below is a list of entries, each paired with its recorded IC50 value.
system: human lung cancer cells (A549); assay: MTT antiproliferative assay, A549; assay type: cell-based; conditions: Homo sapiens, A549, 72 h

- smi: "COc1cc(NC(=O)[C@@H](Cc2ccccc2)NC(=O)OC(C)(C)C)c2cc1Oc1ccc(cc1)C[C@H]1c3cc(c(OC)cc3CCN1C)Oc1c(OC)c(OC)cc3c1[C@H](C2)N(C)CC3"
  IC50 [µM]: 1.96
- smi: "COc1cc(NC(=O)[C@@H](N)C(C)C)c2cc1Oc1ccc(cc1)C[C@H]1c3cc(c(OC)cc3CCN1C)Oc1c(OC)c(OC)cc3c1[C@H](C2)N(C)CC3"
  IC50 [µM]: 6.11
- smi: "COc1cc(NC(=O)[C@H](CC(C)C)NC(=O)OC(C)(C)C)c2cc1Oc1ccc(cc1)C[C@H]1c3cc(c(OC)cc3CCN1C)Oc1c(OC)c(OC)cc3c1[C@H](C2)N(C)CC3"
  IC50 [µM]: 5.54
- smi: "COc1cc(NC(=O)[C@H](N)Cc2ccccc2)c2cc1Oc1ccc(cc1)C[C@H]1c3cc(c(OC)cc3CCN1C)Oc1c(OC)c(OC)cc3c1[C@H](C2)N(C)CC3"
  IC50 [µM]: 2.67
- smi: "COc1ccc2cc1Oc1ccc(cc1)C[C@H]1c3cc(c(OC)cc3CCN1C)Oc1c(OC)c(OC)cc3c1[C@H](C2)N(C)CC3"
  IC50 [µM]: 6.39

###

test: Live/dead FDA/PI double staining, HUVEC; format: cell-based; settings: human, HUVEC cells, 10 μM, read-out: Viable cell percentage

- smi: "COc1cc(NC(=O)[C@@H]2CCCN2)c2cc1Oc1ccc(cc1)C[C@H]1c3cc(c(OC)cc3CCN1C)Oc1c(OC)c(OC)cc3c1[C@H](C2)N(C)CC3"
  viability at 48 h, 10 µM (%): 0.1

###

test: Aqueous solubility determination by HPLC; type: physicochemical; conditions: pure water, thermodynamic from solid; neutral water, room temperature, HPLC

- smi: "COc1ccc2cc1Oc1ccc(cc1)C[C@H]1c3cc(c(OC)cc3CCN1C)Oc1c(OC)c(OC)cc3c1[C@H](C2)N(C)CC3"
  solubility at 1 h: "< 0.03 mg/mL"

###

test system: human umbilical vein endothelial cells (HUVEC); test: MTT antiproliferative assay, HUVEC; format: cell-based; details: 72 h
Binary label based on IC50 with cut-off 3 µM: below gives Y, not below gives N.

- smi: "COc1cc(NC(=O)[C@@H](N)[C@@H](C)O)c2cc1Oc1ccc(cc1)C[C@H]1c3cc(c(OC)cc3CCN1C)Oc1c(OC)c(OC)cc3c1[C@H](C2)N(C)CC3"
  label_class: "N"
- smi: "COc1cc(NC(=O)[C@@H](NC(=O)OC(C)(C)C)[C@@H](C)O)c2cc1Oc1ccc(cc1)C[C@H]1c3cc(c(OC)cc3CCN1C)Oc1c(OC)c(OC)cc3c1[C@H](C2)N(C)CC3"
  label_class: "N"
- smi: "COc1cc(NC(=O)[C@@H](N)CO)c2cc1Oc1ccc(cc1)C[C@H]1c3cc(c(OC)cc3CCN1C)Oc1c(OC)c(OC)cc3c1[C@H](C2)N(C)CC3"
  label_class: "Y"
- smi: "COc1cc(NC(=O)CN)c2cc1Oc1ccc(cc1)C[C@H]1c3cc(c(OC)cc3CCN1C)Oc1c(OC)c(OC)cc3c1[C@H](C2)N(C)CC3"
  label_class: "N"
- smi: "COc1ccc2cc1Oc1ccc(cc1)C[C@H]1c3cc(c(OC)cc3CCN1C)Oc1c(OC)c(OC)cc3c1[C@H](C2)N(C)CC3"
  label_class: "N"
